- System: XBP1(u)-luciferase splicing reporter in HepG2 hepatoma cells
- protocol details: HepG2 XBP1 reporter assay (XBP1(u)-Luc)
- Format: cell-based
- experimental conditions: Homo sapiens, 6 h, six hours after addition of compound
property measured: IC50

# compound, measured target, IC50
rows = [
    ("CCOc1cc([C@@H]2COCCCN2c2cc(C)nc(N)n2)c(Cl)cc1OCC(N)=O [D-176]", "XBP1(u)-luciferase splicing reporter in HepG2 hepatoma cells", "≥ 5000 nM"),
    ("Cc1cc(N2CCCOC[C@@H]2c2ccc(N)cc2Cl)nc(N)n1 [D-30]", "XBP1(u)-luciferase splicing reporter in HepG2 hepatoma cells", "< 600 nM"),
]

Please examine the following record next.
Query block: Look up IC50 for this compound: Cc1cc(N2CCCOCC2c2cc(C)c(N3CCC(C)(O)CC3)cc2Cl)nc(N)n1 [D-13]
Result block: 600 to 2000 nM

###

- Tested on: XBP1(u)-luciferase splicing reporter in HepG2 hepatoma cells
- protocol details: HepG2 XBP1 reporter assay (XBP1(u)-Luc)
- Type: cell-based
- experimental conditions: Homo sapiens, 6 h, six hours after addition of compound
pIC50: −log10 of the molar value.
property measured: pIC50

Completed entries (count: 6):
# molecule, pIC50
rows = [
    ("Cc1cc(N2CCCOCC2c2ncc(CS(C)(=O)=O)cc2Cl)nc(N)n1 (stereo not shown)", "> 6.22"),
    ("COc1cc(C2COCCCN2c2cc(C)nc(N)n2)c(Cl)cc1OCC(=O)N1CCCCC1 (stereo not shown)", "> 6.22"),
    ("Cc1cc(N2CCCOCC2c2cc3c(cc2Cl)NC[C@@](C)(C(=O)NC2CC2)O3)nc(N)n1 (stereo partly shown)", "> 6.22"),
    ("Cc1cc(N2CCCOC[C@H]2c2ccc(NC(=O)C(F)F)cc2Cl)nc(N)n1", "≤ 5.30"),
    ("Cc1cc(N2CCCOC[C@H]2c2cc(O)c(C(=O)NCCO)cc2Cl)nc(N)n1", "≤ 5.30"),
    ("Cc1cc(N2CCCOC[C@@H]2c2ccc(NC(=O)C3(F)CCOC3)cc2Cl)nc(N)n1 (stereo partly shown)", "5.30 to 5.70"),
]

Please look at the following molecule next.
Query block: Could you share what pIC50 was measured for `Cc1cc(N2CCCOC[C@H]2c2ccc([C@@H]3CCCN3)cc2Cl)nc(N)n1` , tested on XBP1(u)-luciferase splicing reporter in HepG2 hepatoma cells?
Result block: 5.30 to 5.70

###

Each entry below lists one item and its recorded melting point value.

# molecule, melting point
rows = [
    ("Cc1cc(N2CCCOCC2c2cc(N3CCCC3=O)ccc2Cl)nc(N)n1 (racemic)", "138 to 140 °C"),
    ("Cc1cc(N2CCCOCC2c2ccc(NC(=O)C(F)F)cc2Cl)nc(N)n1 (racemic)", "188 to 190 °C"),
    ("CCNc1cc(C2COCCCN2c2cc(C)nc(N)n2)c(Cl)cc1F (racemic)", "180 °C"),
]

Query block: Name the reported melting point value associated with the molecule Cc1cc(N2CCCOCC2c2cc(C(O)C(F)(F)F)ccc2Cl)nc(N)n1 (racemic)
Result block: 110 °C

Query block: So what does the record say about melting point for Cc1cc(N2CCCN(S(C)(=O)=O)CC2c2ccccc2Cl)nc(N)n1 (racemic) ?
Result block: 278 to 280 °C

Query block: Can you share its melting point? I mean this molecule: Cc1cc(N2CCCOCC2c2cc(NC(=O)CN(C)C)ccc2Cl)nc(N)n1 (racemic)
Result block: 95 to 97 °C

Query block: Value lookup for melting point; key = Cc1cc(N2CCCOC[C@H]2c2ccccc2Cl)nc(N)n1 (single isomer, unassigned)
Result block: 156 to 160 °C

Query block: Quick one: melting point of Cc1cc(N2CCCOC[C@@H]2c2cc(NS(C)(=O)=O)ccc2Cl)nc(N)n1 (single isomer, unassigned) ?
Result block: 160 °C

###

Catalogue of molecules with associated pIC50
- System: XBP1(u)-luciferase splicing reporter in HepG2 hepatoma cells
- protocol details: HepG2 XBP1 reporter assay (XBP1(u)-Luc)
- Format: cell-based
- experimental conditions: Homo sapiens, 6 hours after compound addition, Table 4
pIC50: −log10 of the molar value.

# molecule, property measured, data value
data = [
    ("CCOc1cc(Cl)c([C@H]2COCCCN2c2cc(C)nc(N)n2)cc1Cl", "pIC50", "> 6.22"),
]

Query block: Please give the measured pIC50 for this molecule: Cc1cc(N2CCCOCC2c2cc3c(cc2Cl)COCO3)nc(N)n1 (stereo not shown)
Result block: 5.70 to 6.22

Query block: Consider the molecule `Cc1cc(N2CCCOC[C@@H]2c2ccc(N3CCC(C)(O)CC3)cc2Cl)nc(N)n1` and give its measured pIC50.
Result block: > 6.22

Query block: Can you share its pIC50? I mean this molecule: Cc1cc(N2CCCOCC2c2cc3c(cc2Cl)OCC(C)(C)CO3)nc(N)n1 (stereo not shown)
Result block: 5.70 to 6.22

###

In this section, each of the compounds is paired with its reported melting point.

As a guide, the following entries are already answered.
# compound, melting point
rows = [
    ("COc1cc(C2CCCCCN2c2cc(C)nc(N)n2)c(OC)cn1 (racemic)", "107 to 109 °C"),
    ("COc1ccc(Cl)c(C2CCCCCN2c2cc(C)nc(N)n2)c1 (racemic)", "88 to 90 °C"),
]

// switching to the query compound
Query block: Returns the measured melting point for the input compound. Input: Cc1cc(N2CCCOC[C@@H]2c2ccc(Br)cc2Cl)nc(N)n1 (single isomer, unassigned)
Result block: 100 to 102 °C
